assay: inhibitors of PMA/ionomycin-induced NF-kB reporter, 697 cells, primary screen, B-cell NF-kB inhibitor project, cell-based, luminescence, uHTS (AID 435022); details: 697 B-cell NF-kB luciferase reporter, 16 h, at 4 µM, stronger effect = higher value
Hit rate of the full screen: of about 330,000 compounds, about 1,100 (0.33%) were called active. This excerpt belongs to a sample that is enriched for actives.
RESULT TYPE: inhibition (%)
Entry rule: numbers only, all in %.

Past entries and their recorded results:
1. CCn1c(O)c(N=NC2=NC(=O)CS2)c2cc(C)ccc21	44.4
2. COc1ccc(C(=O)n2nc(-c3ccc(C)cc3)nc2N)cc1OC	7.38
3. O=C(COC(=O)c1ccc([N+](=O)[O-])cc1Cl)NC(=O)c1ccccc1	-5.46
4. COc1ccc(CNC(=O)C2CCCC2)cc1	9.55
5. CC(=O)c1nc(N2C(=O)C3CC=C(C)CC3C2=O)sc1C (stereo not given)	23.1

Task: Give recorded inhibition. COc1ccc(C(=O)n2nc(C)c(Br)c2C)cc1OC
Output: -0.0717

Task: Input COC(=O)Cn1c2ccc(C)cc2c2nc(C)sc21 , output reported inhibition.
Output: 20.4

Task: // fetch inhibition given entry COc1ccc(C(=O)n2nc(-c3ccc(Cl)cc3)nc2N)cc1OC
Output: 39.3

Task: Write down inhibition measured for item C[C@@H]1O[C@@H](OC[C@H]2O[C@@H](Oc3c(-c4ccc(O)cc4)oc4cc(O)cc(O)c4c3=O)[C@H](O)[C@@H](O)[C@@H]2O)[C@H](O)[C@H](O)[C@H]1O
Output: 3.19

Task: Quick one: give measured inhibition for COc1ccc(CNC(=O)[C@@H]2CC=C[C@@H]3CCN(C4CC4)C(=O)[C@@H]32)cc1
Output: 37.2

Source of measurements: PubChem BioAssay AID435022
